B1: LINE1-full (parent)
chain: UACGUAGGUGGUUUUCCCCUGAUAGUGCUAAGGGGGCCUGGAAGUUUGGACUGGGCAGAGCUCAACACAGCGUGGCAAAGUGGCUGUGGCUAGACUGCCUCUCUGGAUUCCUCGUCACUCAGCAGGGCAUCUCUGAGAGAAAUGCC

Variants of: B1
method: self-cleavage, relative activity (ratio to wild type); higher = more cleavage; in vitro, sequencing; the parent is a self-cleaving ribozyme
recordedMetric: self-cleavage
Just the number, please, no unit attached.

Query string: // query self-cleavage value for entry U85C C90A
Result string: 0.07

Query string: Follow-up item: A65G A117G
Result string: 0.08

Query string: Follow-up item: A42G U109G
Result string: 0.66

Query string: Follow-up item: U47C A50G
Result string: 1.14

Query string: Follow-up item: U20C U81A
Result string: 1.44

Query string: Follow-up item: U109A U143C
Result string: 1.8

Query string: Follow-up item: A43G A124G
Result string: 1.05

Query string: Follow-up item: A64U U132A
Result string: 0.07

Query string: Follow-up item: G10U C145A
Result string: 1

Query string: Follow-up item: A43G G127A
Result string: 0.98

Query string: Follow-up item: U14A A78G
Result string: 0.34

Query string: Follow-up item: U29A U132A
Result string: 1.09

Query string: Follow-up item: U14C A77C
Result string: 2.68

Query string: Follow-up item: G70U A138G
Result string: 0.1

Query string: Follow-up item: U100C U119C
Result string: 1.87

Query string: Follow-up item: G49A A117G
Result string: 1.24

Query string: Follow-up item: A57U U73C
Result string: 0.1

Query string: Follow-up item: U15C U62C
Result string: 0.09

Query string: Follow-up item: U39A U87A
Result string: 0.07

Query string: Follow-up item: U47A U104A
Result string: 0.59

Query string: Follow-up item: U52C A78U
Result string: 1.56

Query string: Follow-up item: U23C U143A
Result string: 1.28
